test: Optical characteristics, Table 3; assay type: physicochemical; conditions: 0.1 M phosphate buffer (pH 9) containing 1% DMSO
property: λmax, fl
Remember to put the unit after the number in your answer.

Solved entries (count: 5):
Cc1ccccc1C1=C2C=CC(=O)C(Cl)=C2[Si](C)(C)c2c1ccc(O)c2Cl [2-Me DCTM]	607 nm
C[Si]1(C)C2=C(F)C(=O)C=CC2=C(c2ccccc2C(=O)O)c2ccc(O)c(F)c21 [2-COOH DFTM]	596 nm
C[Si]1(C)C2=CC(=O)C=CC2=C(c2ccccc2C(=O)O)c2ccc(O)cc21 [2-COOH TM]	598 nm
Cc1ccccc1C1=C2C=CC(=O)C=C2[Si](C)(C)c2cc(O)ccc21 [2-Me TokyoMagenta]	598 nm
C[Si]1(C)C2=C(Cl)C(=O)C=CC2=C(c2ccccc2C(=O)O)c2ccc(O)c(Cl)c21 [2-COOH DCTM]	607 nm

Cc1ccccc1C1=C2C=CC(=O)C(F)=C2[Si](C)(C)c2c1ccc(O)c2F [2-Me DFTM] yielded λmax, fl of 598 nm
